PROCEDURE TEXT: NCI Yeast Anticancer Drug Screen. Data for the wt1 strain (AID 149);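 also: 0% = growth of vehicle-treated wt1 cultures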
MEASUREMENT SETUP: S. cerevisiae wt1 strain (SPY 50644) growth inhibition; at 11.0 µM; hits give high values
This is part of a sample that, as a whole, favours compounds with a hit. Of some 79,000 tested, about 15% had one in any assay.
Entries annotated with measured growth inhibition
# value in %; strip the unit string

C[C@H](CCC(=O)NN)[C@H]1CC[C@H]2[C@@H]3CC[C@@H]4C[C@H](O)CC[C@]4(C)[C@H]3CC[C@]12C = 0
O=C(NCCCNCCCNC(=O)c1cc(-c2ccccc2)nc2ccccc12)c1cc(-c2ccccc2)nc2ccccc12 = -3
Cn1c(=O)c2ccccc2c2ccccc21 = -10

Q. Form field: reported growth inhibition of `CCCC/C=C/C(CC)(C(=O)OCC)C(=O)OCC`
A. -5

Q. Form field: reported growth inhibition of CC(C)C1=CCC2C(=C1)CCC1C(C)(C(=O)O)CCCC21C (stereo not given) (tested in a mixture with another compound)
A. 12

Q. Form field: reported growth inhibition of `O=C([O][Sn]([O]C(=O)c1ccccc1)([c]1ccccc1)[c]1ccccc1)c1ccccc1`
A. -4

Q. Form field: reported growth inhibition of `Cc1[nH]c2ccccc2c1C(c1ccc(N)cc1)c1c(C)[nH]c2ccccc12`
A. -2

Q. Form field: reported growth inhibition of `CN1Cc2ccccc2/C=C\c2ccccc21`
A. -3

Q. Form field: reported growth inhibition of `CC(C)/C(Cl)=N\OC(=O)Nc1cccc(Cl)c1`
A. -1

Q. Form field: reported growth inhibition of `CC(=O)Nc1ccc2c(c1)C(=Nc1ccc(C(=O)O)cc1)c1ccccc1-2`
A. 5

The reported numbers originate from PubChem BioAssay (NCI).
